- System: MS2 coat protein
- Assay Info: apparent KD of MS2 coat protein; higher = weaker reporter binding
- Setup Conditions: Eterna round: R107; input ligand: arginine 13.2 mM
Endpoint Label: apparent KD of MS2 coat protein (nM)

CAAGCACCAACCGAUACCAGCUUAGUAGUAUGCUCAUUAAACAUGAGGAUCACCCAUGUGAGCCCUUGGCAGCGGAUUUCCCUGC [theeternabot_exclusion_MS2_Theo_B_12]	14.5
UGGGUACAUGAGGAUCACCCAUGUACUGAAGGAGCGAGAAAUAUCUCAGGUAGGUCGCAGACAUGAGGAUCACCCAUGUAGUAGG [Exclusion Arginine A GF 11]	29.5
AGCUCGCAUCCUCUAGCGUCAAAGACGCGUCGAGGACCGGUACGGCCGCCACUCGACUUGAGGAACACCCAAGUCCUAGCGAGCA [TrypAX 12 #SwitchBubble #AlternativeMS2 #MS2Late #CuTurnoff]	62.2
CGAAAGCAGUGAUCCAGCUUUCGCCUGGAAGGAGCGAGCGAAAGCUCAGGUAGGUCGCCAGAAACAUGAGGAUCACCCAUGUAAU [(A)''-(M)'-(A)'-(Arg1)-(Arg2)-(M1)-(M2)_Design8]	36.6
AGUAAUCUAUCAGAUACCAGACCCUCUUUAACAUGAGGAUCACCCAUGUCUAUGUUCUACGUCCCUUGGCAGCUGUAAAUGAUAA [JR_SSTheophyB_Sub002]	34.9
